tested on: P. falciparum stage V gametocytes; design: BacTiter-Glo ATP luminescence viability of purified stage V gametocytes in 384-well plates, per cent inhibition versus DMSO; settings: 48 h, 5 µM, inhibitor, % Inhibition
About 3,200 (25%) of roughly 13,000 compounds showed an effect of 50% or more. The list shows a part of the results.

# molecule, u, % Inhibition
records = [
    ("Cc1ccc(/C=C/C(=O)NC2CCC(CN3CCC(c4c[nH]c5ccccc45)CC3)CC2)cc1 (stereo not shown) [TCMDC-139717]", "%", 80.48),
    ("Cc1ccc(C)c(C=CC(=O)NC2CCC(CN3CCC(c4c[nH]c5ccccc45)CC3)CC2)c1 (stereo not shown) [TCMDC-139916]", "%", -2.713),
    ("N#Cc1ccc2c(c1)CN(CC[C@H]1CC[C@H](NC(=O)/C=C/c3c[nH]c4ccccc34)CC1)CC2 [TCMDC-139191]", "%", -21.51),
    ("Cc1ccc(/C=C/C(=O)NC2CCC(CN3CCC(c4c[nH]c5ccccc45)CC3)CC2)cc1C (stereo not shown) [TCMDC-139760]", "%", 36.59),
]

====

tested on: P. falciparum stage V gametocytes; parameters: BacTiter-Glo ATP luminescence viability of purified stage V gametocytes in 384-well plates, per cent inhibition versus DMSO; conditions: 48 h, 5 µM; inhibitor
In all, about 13,000 compounds went through this assay and about 3,200 (25%) showed an effect of 50% or more. The list shows a part of the results.

# molecule, % Inhibition
measured = [
    ("Cc1cccc2nc(-c3cccc(-c4ccc(C(=O)NCCc5ccc(O)c(=O)[nH]5)cc4)c3)[nH]c12", "-25.23%"),
    ("CCOc1cc(C)ccc1C1CCN(CCCCNC(=O)c2cnc(-c3ccc(C(F)(F)F)cc3)[nH]2)CC1", "5.476%"),
    ("N#Cc1ccc2c(c1)CCN(CCC1CCC(NC(=O)c3cc4ccc(Br)cc4[nH]3)CC1)C2 (stereo not shown)", "-25.15%"),
    ("O=C(c1ccc(-c2cccc(-c3nc4cc(F)ccc4[nH]3)c2)cc1)N1CCCCC1CN1CCC(O)C1 (stereo not shown)", "80.27%"),
    ("COc1ccc2[nH]cc(C3CCN(Cc4ccc(NC(=O)c5ccc(-c6ccccc6)cc5)cc4)CC3)c2c1", "7.748%"),
    ("CN1CCN(CCCN(Cc2ccc(-c3cccc(CNC4CCCC4)c3)cc2)C(=O)/C=C/c2ccccc2)CC1", "114.1%"),
    ("CC(O)C1CCCCN1C(=O)c1cccc(-c2cccc(-c3nc4cc(F)ccc4[nH]3)c2)c1 (stereo not shown)", "25.33%"),
    ("CN1CCN(CCCN(Cc2cccc(-c3cccc(CNC4CCCC4)c3)c2)C(=O)/C=C/c2ccccc2)CC1", "105.2%"),
    ("CC(Cc1ccc(CNC(=O)c2ccc(CC(C)NCCc3cccc(Cl)c3)cc2)cc1)NCCc1cccc(Cl)c1 (stereo not shown)", "108.3%"),
    ("CCCCN1CCCN(Cc2cccc(NC(=O)c3ccc(-c4ccccc4)cc3)c2)CC1", "-70.1%"),
    ("CC(Cc1ccc(C(=O)N2CCN(C(=O)c3ccc(CC(C)NCCc4cccc(Cl)c4)cc3)CC2)cc1)NCCc1cccc(Cl)c1 (stereo not shown)", "105.5%"),
    ("CN1CCN(CCCN(Cc2cccc(-c3ccc(CNC4CCCC4)cc3)c2)C(=O)/C=C/c2ccccc2)CC1", "99.25%"),
    ("N=C1NC(=N)N(OCCCCCCON2C(=N)NC(=N)NC2C=Cc2ccccc2)C(C=Cc2ccccc2)N1 (stereo not shown)", "-13.97%"),
    ("CC(O)C1CCCCN1C(=O)c1ccc(-c2cccc(-c3nc4cc(F)ccc4[nH]3)c2)cc1 (stereo not shown)", "18.43%"),
    ("Cc1cc(=O)[nH]c2cc(Nc3ccnc(Nc4cccc(C(N)=O)c4)n3)ccc12", "20.95%"),
    ("CCCC1N=C(N)N=C(N)N1c1ccc(OC)cc1 (stereo not shown)", "-30.41%"),
    ("CC(O)C1CCCCN1C(=O)c1cccc(-c2cccc(-c3nc4ccccc4[nH]3)c2)c1 (stereo not shown)", "8.745%"),
    ("CC(C)c1sc(N2CCN(C)CC2)nc1C(=O)NCCc1cccc(Cl)c1", "6.593%"),
    ("COc1ccccc1C1CC(c2ccccc2)=NN1C(=O)c1ccco1 (stereo not shown)", "5.682%"),
    ("Cc1ccc(F)c(C(=O)Nc2cccc(-c3nn4ccccc4c3-c3ccnc(Nc4cccc(F)c4)n3)c2)c1F", "-36.31%"),
    ("CN(C)CCCOc1ccc(CN2CCC(c3c[nH]c4ccc(NCC5CCCCC5)cc34)CC2)cc1", "96.97%"),
    ("CCC(C)NS(=O)(=O)c1ccc2nc(Nc3cccc(SC)c3)n(C(C)C(C)C)c2c1 (stereo not shown)", "-59.9%"),
    ("COC(=O)c1c(C#N)c(OC)cc(O)c1CSC[C@H](Nc1nc(-c2ccc([N+](=O)[O-])cc2)cs1)C(=O)NCCN1CCCCC1", "-15.18%"),
    ("CCN(CC(C)O)C(=O)c1ccc(-c2ccc(-c3nc4cccc(C)c4[nH]3)cc2)cc1 (stereo not shown)", "-12.34%"),
    ("CC(C)N1CCN(CCCNc2c3ccccc3nc3ccccc23)CC1", "96.57%"),
    ("CN1CCN(CCCN(Cc2ccc(-c3cccc(CNC4CCCC4)c3)cc2)C(=O)Nc2ccccc2)CC1", "107.6%"),
    ("CCCCCN1CCCN(Cc2cccc(NC(=O)c3ccc(-c4ccccc4)cc3)c2)CC1", "-85.57%"),
    ("O=C(c1ccc(-c2cccc(-c3nc4cc(C(F)(F)F)ccc4[nH]3)c2)cc1)N1CCCCC1CN1CCC(O)C1 (stereo not shown)", "-20.7%"),
    ("COc1ccc(CCn2c(C3CCCCC3)nc3oc4ccccc4c(=O)c3c2=O)cc1", "26.12%"),
    ("CCCNc1ccc2nccc(CCN3CCC(NCc4ccc5c(n4)NC(=O)CS5)CC3)c2n1", "39.25%"),
    ("O=C(CCN1C(=O)c2ccccc2C1=O)N1CCN(CC=Cc2ccccc2)CC1", "5.299%"),
]

====

tested on: P. falciparum stage V gametocytes; parameters: BacTiter-Glo ATP luminescence viability of purified stage V gametocytes in 384-well plates, per cent inhibition versus DMSO; conditions: 48 h, 5 µM; inhibitor
About 3,200 (25%) of roughly 13,000 compounds showed an effect of 50% or more. This is one part of the list.
Each entry below lists one item and its recorded % Inhibition value.

# compound, tgt, % Inhibition / %
rows = [
    ("CCN(CC)/C(=N/C(=N)Nc1ccc(Br)cc1)NCCCCCCN/C(=N\\C(=N)Nc1ccc(Br)cc1)N(CC)CC [TCMDC-131814]", "P. falciparum stage V gametocytes", 118.9),
    ("N=C(N)c1ccc(NC(=O)Cc2nc3ccc(C(=N)N)cc3[nH]2)cc1 [TCMDC-131867]", "P. falciparum stage V gametocytes", 10.64),
    ("CC1(C)CC2CC(C)(CN2C(=O)c2cc(C(C)(C)C)nn2Cc2ccccc2)C1 (centres unmarked) [TCMDC-133777]", "P. falciparum stage V gametocytes", -28.49),
    ("FC(F)(F)c1ccc(/C=C/c2cncnc2Nc2ccc3nc(Cc4ccccc4)[nH]c3c2)cc1 [TCMDC-138660]", "P. falciparum stage V gametocytes", -4.612),
    ("N#Cc1ccc(CN2CCC(Oc3ccc(NC(=O)c4cccs4)cc3)CC2)cc1 [TCMDC-133953]", "P. falciparum stage V gametocytes", 32.19),
    ("CCN(CC)/C(=N/C(=N)Nc1ccc(C)cc1)NCCCCCCN/C(=N\\C(=N)Nc1ccc(C)cc1)N(CC)CC [TCMDC-131810]", "P. falciparum stage V gametocytes", 116.5),
    ("CCCCNC(=O)[C@H](CC1CCCCC1)NC(=O)c1ccc(O)c(-c2cccc(C(F)(F)F)c2)c1 [TCMDC-140812]", "P. falciparum stage V gametocytes", 31.87),
    ("CCCN1CCN(CC(O)CNC(=O)Nc2ccc(Br)cc2)CC1 (centres unmarked) [TCMDC-134638]", "P. falciparum stage V gametocytes", 9.49),
]

====

system: P. falciparum stage V gametocytes; parameters: BacTiter-Glo ATP luminescence viability of purified stage V gametocytes in 384-well plates, per cent inhibition versus DMSO; details: 48 h, 5 µM; inhibitor
About 3,200 (25%) of roughly 13,000 compounds showed an effect of 50% or more. This is one part of the list.
Reported values of % Inhibition for individual entries
reported.endpoint: % Inhibition (%)

# molecule, meas.value
records = [
    ("CC(=O)Nc1cccc(Nc2c3ccccc3nc3ccccc23)c1", -71.42),
    ("Nc1nccc2ccc(-c3cccnc3)cc12", 30.25),
    ("Cc1[nH]c(C)c(-c2ccc(-c3ccc(OC(F)(F)F)cc3)cc2)c(=O)c1Br", 85.61),
    ("Cc1[nH]c(C)c(-c2cccc(-c3ccc(OC(F)(F)F)cc3)c2)c(=O)c1Br", 76.13),
    ("Cc1cccc2nc(-c3ccc(-c4ccc(CN5CCOCC5)cc4)cc3)[nH]c12.O=C(O)C(F)(F)F", 20.49),
    ("CCOc1ccccc1NC(=O)Nc1ccc2c(c1)CCN(C1CCC1)CC2", 31.77),
    ("O=S(=O)(c1c(Cl)cc(Cl)cc1Cl)N1CCCCC(c2ccc(F)c(F)c2)=N1", -45.8),
    ("CCc1ccc(NC(=O)N(CCCN2CCN(C)CC2)Cc2csc(-c3ccc(CNCc4ccccc4)cc3)n2)cc1", 9.107),
    ("Cn1c2c(c3ccccc31)CN(CCC1(c3ccc(Cl)c(Cl)c3)CN(C(=O)c3ccccc3)CCO1)CC2 (centres unmarked)", -29.91),
    ("NCc1ccc(-c2ccc3c(N)nccc3c2)cc1", 107.3),
    ("Cc1ccc(Nc2c3ccccc3nc3ccc(C)cc23)cc1", -51.64),
    ("CN(C)Cc1ccc(-c2ccc3ccnc(N)c3c2)cc1", 60.33),
    ("CN1CCN(CCCN(Cc2csc(-c3ccc(CNCc4ccccc4)cc3)n2)C(=O)c2cc(F)cc(F)c2)CC1", 50.04),
    ("CN1CCN(c2ccc3nccc(CCN4CCC(NCc5ccc6c(n5)NC(=O)CO6)CC4)c3n2)CC1", 8.776),
    ("CC(=O)Nc1ccc(Nc2c3ccccc3nc3ccccc23)cc1", 67.17),
    ("Cl.c1ccc2c(Nc3ccc(OCCOCCOc4ccc(Nc5c6ccccc6nc6ccccc56)cc4)cc3)c3ccccc3nc2c1", 108.9),
    ("NCc1cccc(-c2ccc3ccnc(N)c3c2)c1", 55.02),
]
